test system: SNRK; conditions: concentration: 1 μM, replicates: in singlicate; n = 1
observedProperty: %Inh (%)
Could you give me the number in %? Just the number is fine.

Take a look at these entries with their results.
>>> reported("O=C(Nc1n[nH]c2nc(-c3nccs3)c(Br)cc12)C1CC1")
0
>>> reported("CC(=O)Nc1nc2cnc(Nc3cc(NC(=O)c4cccc(CCC#N)c4)ccc3C)nc2s1")
33

Exam item: Returns the measured %Inh for the input compound. Input: `COc1ccc2nc(-c3cccc(C)n3)nc(Nc3ccncc3)c2c1`
Marked response: 0

Exam item: Returns the measured %Inh for the input compound. Input: `O=C(Nc1ccccc1)Nc1cccc(Oc2ccc3nccn3n2)c1`
Marked response: 0

Exam item: Returns the measured %Inh for the input compound. Input: `Cn1ccc2ncnc(Oc3ccc(NC(=O)Nc4ccccc4)cc3)c21`
Marked response: 33

----------
Some compounds, each annotated with its measured %Inh.
tested on: RSK1(Kin.Dom.2-C-terminal); construct: gene RPS6KA1; settings: concentration: 1 μM, replicates: in singlicate; n = 1
Could you give me the number in %? Just the number is fine.

Take a look at these entries with their results.
>>> reported("COc1cccc(-c2cc(-c3c[nH]nc3-c3ccccn3)ccn2)c1")
9
>>> reported("Cl.Oc1ccc(-c2nc(-c3ccccc3)[nH]c2-c2ccncc2)cc1")
0
>>> reported("Cn1cncc1-c1ccc2ncnc(Nc3ccc(OCc4ccccc4)cc3)c2c1")
0

Exam item: Returns the measured %Inh for the input compound. Input: `Clc1cc(Cl)cc(Nc2ccnc(Nc3cc(Cl)cc(Cl)c3)n2)c1`
Marked response: 26

Exam item: Returns the measured %Inh for the input compound. Input: `O=S(=O)(c1ccc(-c2ccnc3[nH]ccc23)cc1)N1CCCC1`
Marked response: 54

----------
test system: DMPK; settings: concentration: 1 μM, replicates: in singlicate; n = 1
Some compounds, each annotated with its measured %Inh.
Please answer in the form of a number followed by its unit of measurement.

Take a look at these entries with their results.
>>> reported("Cc1c(Cn2ccn3c(=O)cc(N4CCOCC4)nc23)cccc1C(F)(F)F")
"64%"
>>> reported("Cn1ccc2ncnc(Oc3ccc(NC(=O)Nc4ccccc4)cc3)c21")
"0%"

Exam item: Returns the measured %Inh for the input compound. Input: `Cl.O=C(Nc1cccc(-c2nn3ncccc3c2-c2ccnc(Nc3cccnc3)n2)c1)c1c(F)cccc1F`
Marked response: 15%

Exam item: Returns the measured %Inh for the input compound. Input: `COc1cccc(-c2cc(-c3c[nH]nc3-c3ccccn3)ccn2)c1`
Marked response: 0%

Exam item: Returns the measured %Inh for the input compound. Input: `COC(=O)c1c(-c2ccccc2)c2cc(OC)ccc2c(=O)n1Cc1ccccc1`
Marked response: 0%

----------
test system: TRKC; construct: gene NTRK3
observedProperty: pKd
Please treat pKd as minus the base-10 logarithm of the molar concentration.

Exam item: Lab request: please report pKd under test system TRKC for COc1cccc(NC(=O)NC2CCN(c3ccnc(Nc4ccc(F)cc4)n3)C2)c1 (stereo not shown);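 further: kd values determined as follow-up on hits from a single-replicate KINOMEscan panel screen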
Marked response: 6.51

----------
tested on: CAMK2B; settings: concentration: 1 μM, replicates: in singlicate; n = 1
Some molecules, each annotated with its measured %Inh.
Could you give me the number in %? Just the number is fine.

Exam item: Returns the measured %Inh for the input molecule. Input: `Cc1cc(NCC(c2ccccc2)c2ccccc2)nc(NCc2ccc(C(F)(F)F)cc2)n1`
Marked response: 0

Exam item: Returns the measured %Inh for the input molecule. Input: `Cn1ccc2ncnc(Oc3ccc(Nc4nc5ccccc5[nH]4)cc3)c21`
Marked response: 5

Exam item: Returns the measured %Inh for the input molecule. Input: `Cc1cccc(-c2cc(Nc3ccncc3)c3ccccc3n2)n1`
Marked response: 0

Exam item: Returns the measured %Inh for the input molecule. Input: `COc1ccc(Nc2nccc(-c3cccc(NC(=O)c4cc5cc(F)ccc5[nH]4)c3)n2)cc1`
Marked response: 0

Exam item: Returns the measured %Inh for the input molecule. Input: `Clc1cc(Cl)cc(Nc2ccnc(Nc3cc(Cl)cc(Cl)c3)n2)c1`
Marked response: 0

Exam item: Returns the measured %Inh for the input molecule. Input: `COc1cccc(-c2cc(-c3c[nH]nc3-c3ccccn3)ccn2)c1`
Marked response: 0

Exam item: Returns the measured %Inh for the input molecule. Input: Cc1nnc(-c2ccc3occ(-c4ccc(S(C)=O)cc4)c3c2)[nH]1 (stereo not drawn)
Marked response: 12

Exam item: Returns the measured %Inh for the input molecule. Input: `O=C(Nc1n[nH]c2nc(-c3nccs3)c(Br)cc12)C1CCCC1`
Marked response: 0

Exam item: Returns the measured %Inh for the input molecule. Input: `O=C(Nc1n[nH]c2nc(-c3nccs3)c(Br)cc12)C1CC1`
Marked response: 0
